What Vmax, Yeast NMT was measured for each of the following?
system_name: Yeast NMT (partially purified from S. cerevisiae) (Saccharomyces cerevisiae)
Sequence (P14743 1-455): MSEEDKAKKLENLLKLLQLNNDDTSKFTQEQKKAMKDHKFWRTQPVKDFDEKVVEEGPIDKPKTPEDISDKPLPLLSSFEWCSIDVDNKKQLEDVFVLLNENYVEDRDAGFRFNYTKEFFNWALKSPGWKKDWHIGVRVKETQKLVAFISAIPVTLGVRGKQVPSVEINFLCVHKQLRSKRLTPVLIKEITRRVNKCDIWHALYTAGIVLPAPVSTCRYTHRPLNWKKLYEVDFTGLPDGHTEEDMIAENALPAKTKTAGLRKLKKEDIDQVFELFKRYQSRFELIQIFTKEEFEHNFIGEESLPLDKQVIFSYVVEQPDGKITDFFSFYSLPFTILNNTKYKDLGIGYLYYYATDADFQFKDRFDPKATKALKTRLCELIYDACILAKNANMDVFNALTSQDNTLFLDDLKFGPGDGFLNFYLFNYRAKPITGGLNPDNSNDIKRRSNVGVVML
test_protocol: coupled in vitro assay for NMT activity, Yeast NMT
Type: biochemical
stated_conditions: peptide substrate, 15 μM myristate; percentage of Vmax with GNAAAARR and myristoyl-CoA
Entry rule: numbers only, all in %.

Data request: Provide value of Vmax, Yeast NMT for this record tested with Yeast NMT (partially purified from S. cerevisiae) (Saccharomyces cerevisiae): GSAAAARR [synthetic octapeptide substrate, one letter amino acid code]
Data returned: 50

Data request: Please provide the recorded Vmax, Yeast NMT for GSSKSKPK [synthetic octapeptide substrate, one letter amino acid code] , tested on Yeast NMT (partially purified from S. cerevisiae) (Saccharomyces cerevisiae).
Data returned: 43
